TEST READOUT: melting point

COMPOUND	melting point
CCCCCN(CCC12CC3CC(CC(C3)C1)C2)C(=O)NCC(CC)Cc1ccncc1 (stereo not shown)	72 to 77 °C
O=C(N(CCCc1ccncc1)Cc1ccccc1)N(CCCc1ccccc1)C1CCCCC1	107 to 112 °C
CC(C)=CCN(CCC12CC3CC(CC(C3)C1)C2)C(=O)NCCCc1ccncc1	93 to 96 °C

Tell me measured melting point for `CCCCCN(CCC12CC3CC(CC(C3)C1)C2)C(=O)CNCCc1ccncc1.Cl.Cl` please.
133.7 to 137 °C

Source: patent US7923461B2
